system: methionyl-tRNA synthetase (Trypanosoma brucei brucei); assay: T. brucei MetRS aminoacylation inhibitors, late-stage follow-up, counter-screen for T. brucei MetRS inhibitor project, biochemical, radioactivity, assay provider (AID 720623); settings: Recombinant T. brucei MetRS enzyme, [3H]methionine tRNA aminoacylation, filter scintillation, 120 min; inhibition; at 1 µM; stronger effect = higher value
# label = condition met if inhibition >= 90% else condition not met

molSmiles	category
O=C(NCc1nc2ccccc2[nH]1)C1=C[C@@H](C2CC2)C[C@@H](OCc2ccc(CO)cc2)O1	condition not met
Brc1cnc2nc(SCc3nc4ccccc4[nH]3)[nH]c2c1	condition not met
COc1cccc(NC(=O)CSc2nnc3c(n2)[nH]c2ccc(C)cc23)c1	condition met
CC(C)(C)[C@H]1C=C(C(=O)NCc2nc3ccccc3[nH]2)O[C@@H](OCc2ccc(CO)cc2)C1	condition not met
COc1ccc(CNC(=O)CSc2nnc3c(n2)[nH]c2ccc(F)cc23)cc1	condition not met
